Please provide measured concentration at 4 h for the entries that follow.
test: Plasma pharmacokinetics after intraperitoneal injection in mouse (UPLC-MS/MS); type: in vivo; conditions: male, ICR, mouse, plasma, ip, 10 mg/kg, IP 10 mg/kg, 4 h; read-out: Plasma concentration, Mean
Report the figure along with its unit, number first.

Ask | Would you kindly share the measured concentration at 4 h for `CC1(C)O[C@]23C[C@H]1CC[C@]2(C)CCC=C3CCCC(F)(F)F` ?
Reply | 7.45 ng/mL

Ask | Proceed to CCCCC1=CCC[C@@]2(C)CC[C@@H]3C[C@]12OC3(C)C [BAF, 4-butyl-α-agarofuran, reference compound]
Reply | 5.4 ng/mL

Attribution: patent US20230391741A1
